System: herpes simplex virus (HSV) type 1
Experiment: Inactivation of herpes simplex virus in infected MRC-5 cells by alcohols (Example 25); also: key: 0: no CPE; 1: a few; 2: several; 3: all cells infected with HSV
Type: cell-based
Settings: 80% alcohol in PBS; 2 min; duplicate wells
From the text: Ethanol is an accepted disinfectant for viruses with an envelope. The purpose of this study was to measure the inactivating effect of “short-chained alcohols” on virus-infected cells. Four 96 well plates with confluent MRC-5 cell were infected with herpes simplex virus (HSV) type 1. […] Virus surviving the treatment with alcohol was detected by the appearance of CPE, characteristic for HSV in the detection monolayer.
HSV - CPE after 44 hours with the detecting cell-layer listing for selected compounds.
value.type: HSV - CPE after 44 hours with the detecting cell-layer

smiles.text	experimental.system	test.value
CCCO	herpes simplex virus (HSV) type 1	0
CO	herpes simplex virus (HSV) type 1	1
CC(C)O	herpes simplex virus (HSV) type 1	1
CCO	herpes simplex virus (HSV) type 1	2
